Target Entity: human LPA1 receptor (Homo sapiens)
Sequence (Q92633 whole entry): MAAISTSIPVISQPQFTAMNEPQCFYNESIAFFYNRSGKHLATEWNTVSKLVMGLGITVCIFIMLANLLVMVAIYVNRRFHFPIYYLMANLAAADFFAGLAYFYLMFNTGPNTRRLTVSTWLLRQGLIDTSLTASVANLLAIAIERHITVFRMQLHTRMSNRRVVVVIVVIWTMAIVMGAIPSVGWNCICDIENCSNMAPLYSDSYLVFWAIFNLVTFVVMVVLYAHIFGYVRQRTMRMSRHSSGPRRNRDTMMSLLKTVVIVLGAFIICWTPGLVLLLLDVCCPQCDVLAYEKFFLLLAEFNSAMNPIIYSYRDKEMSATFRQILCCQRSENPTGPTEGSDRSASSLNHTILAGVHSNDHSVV
Assay Info: Dynamic mass redistribution (DMR) assay in CHOLPA1 cells
Condition Description: Agonism pEC50, CHOLPA1, DMR; negative DMR signal (inverse agonism); peak; up to 10 µM (compound 35 up to 1 µM); °inactive at 10 μM
Overview of recorded EC50 for various compounds
Remember to quote the unit after the number.

Incoming: Give the measured EC50 for Cc1noc(-c2ccc(CSCCC(=O)O)cc2)c1NC(=O)OC(C)c1ccccc1Cl (stereo not shown)
Outgoing: 67.6 nM

Incoming: Tell me its EC50 given `Cc1noc(-c2ccc(O[C@H]3CC[C@@H](C(=O)O)CC3)cc2)c1NC(=O)O[C@H](C)c1ccccc1Cl` as the entry.
Outgoing: 309 nM

Incoming: Dear colleague, please send me the reported EC50 for `Cc1nnn(-c2ccc(-c3ccc(C4(C(=O)O)CC4)cc3)cc2)c1NC(=O)O[C@H](C)c1ccccc1` when you can.
Outgoing: 49 nM

Incoming: Retrieve EC50 measured for `Cc1noc(-c2ccc(-c3ccc(C4(C(=O)O)CC4)cc3)cc2)c1NC(=O)O[C@H](C)c1ccccc1` and print it.
Outgoing: 87.1 nM

---

Target Entity: UniProtKB Q9HBW0
Sequence (Q9HBW0 whole entry): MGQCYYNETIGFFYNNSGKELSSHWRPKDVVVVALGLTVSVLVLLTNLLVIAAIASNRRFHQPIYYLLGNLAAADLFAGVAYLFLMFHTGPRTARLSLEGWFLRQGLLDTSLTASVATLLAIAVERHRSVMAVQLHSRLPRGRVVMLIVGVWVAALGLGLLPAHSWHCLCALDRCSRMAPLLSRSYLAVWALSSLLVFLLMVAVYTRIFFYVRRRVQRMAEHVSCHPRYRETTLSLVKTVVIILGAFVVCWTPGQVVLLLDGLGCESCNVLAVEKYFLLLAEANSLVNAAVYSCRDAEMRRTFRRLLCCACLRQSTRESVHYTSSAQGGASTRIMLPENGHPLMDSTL
Assay Info: Dynamic mass redistribution (DMR) assay in CHOLPA2 cells
Condition Description: CHOLPA2, DMR; negative DMR signal; peak; up to 10 µM (compound 35 up to 1 µM); °inactive at 10 μM

{"Compound": "Cc1noc(-c2ccc(-c3ccc(C4(C(=O)O)CC4)cc3)cc2)c1NC(=O)O[C@H](C)c1ccccc1", "Agonism pEC50": "Crc incomplete"}
{"Compound": "Cc1csc2c(N[C@@H](C)CN3CCN(S(=O)(=O)c4ccc(Cl)c(Cl)c4)CC3)ncnc12", "Agonism pEC50": "Crc incomplete"}
{"Compound": "Cc1noc(-c2ccc(CSCCC(=O)O)cc2)c1NC(=O)OC(C)c1ccccc1Cl (stereo not shown)", "Agonism pEC50": "Crc incomplete"}

---

Known DMR response of a selection of molecules
Target Entity: UniProt Q92633
Assay Info: Dynamic mass redistribution (DMR) assay in CHOLPA1 cells
Condition Description: CHOLPA1 cells; compound 10 μM; mean ± s.e.m.
// note: answer is a bare numeric in pm

{"Molecule": "O=C1C[C@@](O)(C(F)(F)F)c2c(-c3cccc(F)c3)n[nH]c2N1", "DMR response [pm]": "−31"}
{"Molecule": "Cc1noc(-c2ccc(-c3ccc(C4(C(=O)O)CC4)cc3)cc2)c1NC(=O)O[C@H](C)c1ccccc1", "DMR response [pm]": "−134"}
{"Molecule": "Cc1noc(-c2ccc(O[C@H]3CC[C@@H](C(=O)O)CC3)cc2)c1NC(=O)O[C@H](C)c1ccccc1Cl", "DMR response [pm]": "−78"}
{"Molecule": "Cc1nnn(-c2ccc(-c3ccc(C4(C(=O)O)CC4)cc3)cc2)c1NC(=O)O[C@H](C)c1ccccc1", "DMR response [pm]": "−66"}

Could you now look at the following molecule, please?
Incoming: Read the entry Cc1noc(-c2ccc(CSCCC(=O)O)cc2)c1NC(=O)OC(C)c1ccccc1Cl (centres unmarked) and write its reported DMR response.
Outgoing: −101

---

Target Entity: human LPA1 receptor (Homo sapiens)
Assay Info: Dynamic mass redistribution (DMR) assay in CHOLPA1 cells
Condition Description: CHOLPA1, DMR; negative DMR signal; peak; up to 10 µM (compound 35 up to 1 µM); °inactive at 10 μM
Known Agonism Emax of a selection of molecules
State just the number; it will be interpreted in pm.

Consider the worked cases shown below.
{"Molecule": "Cc1noc(-c2ccc(CSCCC(=O)O)cc2)c1NC(=O)OC(C)c1ccccc1Cl (centres unmarked)", "Target Entity": "human LPA1 receptor (Homo sapiens)", "Agonism Emax / pm": "−110"}
{"Molecule": "Cc1noc(-c2ccc(O[C@H]3CC[C@@H](C(=O)O)CC3)cc2)c1NC(=O)O[C@H](C)c1ccccc1Cl", "Target Entity": "human LPA1 receptor (Homo sapiens)", "Agonism Emax / pm": "−68"}

Incoming: Give Agonism Emax for `Cc1nnn(-c2ccc(-c3ccc(C4(C(=O)O)CC4)cc3)cc2)c1NC(=O)O[C@H](C)c1ccccc1` tested on human LPA1 receptor (Homo sapiens).
Outgoing: −80
